Each record here notes measured inhibition.
# TARGET DESC: Hexose transporter 1 (Plasmodium falciparum) (UniProt O97467)
# TEST DESCRIPTION: ST_JUDE_LEISH: Cytotoxicity at 2uM final concentration against transgenic Leishmania Mexicana promastigotes LmPfHT that are glucose transport deficient and complemented with the Plasmodium falciparum hexose transporter. Activity is measured by DNA content using SYBR green in vitro
# Format: functional
// units = %; emit number, no label

Past entries and their recorded results:
{"COMPOUND": "CCCc1cc(Cc2cnc(N)nc2N)cc(CCC)c1OCCCCC(=O)O", "UNITS OF MEASURE": "%", "ASSAY VALUE": 1.3}
{"COMPOUND": "N#Cc1cccc(NC(=O)Nc2cccc(-c3ccc(-c4nc5cc(C(F)(F)F)ccc5[nH]4)cc3)c2)c1", "UNITS OF MEASURE": "%", "ASSAY VALUE": 2.13}
{"COMPOUND": "O=C(/C=C/c1ccc([N+](=O)[O-])cc1)N1CCC(CCN2CCC(c3c[nH]c4ccccc34)CC2)CC1", "UNITS OF MEASURE": "%", "ASSAY VALUE": 3.09}

The compound listed as N=C(N)NN=CC(=O)Nc1ccc(Cl)c(Cl)c1 shows inhibition equal to -1.4

The compound listed as COc1ccccc1C1CCN(C2CCC(NC(=O)/C=C/c3cccc(Cl)c3)CC2)CC1 (centres undefined) shows inhibition equal to 0.95

The compound listed as COc1ccc2nc3cc(Cl)ccc3c(Nc3ccc(Oc4ccc(Nc5c6ccc(Cl)cc6nc6ccc(OC)cc56)cc4)cc3)c2c1 shows inhibition equal to 1.19

The compound listed as CC(CN1CCN(C)CC1)C(=O)Nc1ccc(-c2ccc(-c3nc4ccccc4[nH]3)cc2)cc1 (centres undefined) shows inhibition equal to 3.04

The compound listed as O=C1Nc2cccc3c2C1(CCCCN1CCC(c2c(-c4ccc(F)cc4)[nH]c4ccccc24)CC1)CCC3 (centres undefined) shows inhibition equal to 5.23

The compound listed as CN(C)c1ccc(-c2csc(C(=O)NCC3CCN(Cc4cccc(C(F)(F)F)c4)C3)c2)cc1 (centres undefined) shows inhibition equal to 6.1

The compound listed as Cc1cccc2nc(-c3ccc(-c4ccc(CNCc5cnn(-c6ccccc6)n5)cc4)s3)[nH]c12 shows inhibition equal to -1.57

* * *

# TARGET DESC: Solute carrier family 2, facilitated glucose transporter member 1 (Homo sapiens)
# TEST DESCRIPTION: ST_JUDE_LEISH: Cytotoxicity at 2uM final concentration against transgenic Leishmania Mexicana promastigotes LmGLUT1 that are glucose transport deficient and complemented with the human glucose transporter GLUT1. Activity is measured by DNA content using SYBR green in vitro
# Assay type: functional
Each record here notes measured inhibition.
// units = %; emit number, no label

I looked up Cn1cnnc1Sc1ccc(CN2CCOc3ccc(C4=CCCCC4)cc3C2)o1 and its inhibition for Solute carrier family 2, facilitated glucose transporter member 1 (Homo sapiens) was 0.65

* * *

# TARGET DESC: Glucose transporter (Leishmania mexicana)
# TEST DESCRIPTION: ST_JUDE_LEISH: Cytotoxicity at 2uM final concentration against transgenic Leishmania Mexicana promastigotes LmGT2 that are glucose transport deficient and complemented with the L. Mexicana glucose transporter 2. Activity is measured by DNA content using SYBR green in vitro
# Type: functional
Each record here notes measured inhibition.
// units = %; emit number, no label

Past entries and their recorded results:
{"COMPOUND": "COc1ccc2nccc([C@@H](O)CN3CCC(NCc4ccc5c(c4)sc(=O)n5C)CC3)c2c1", "UNITS OF MEASURE": "%", "inhibition": -1.7}
{"COMPOUND": "NC(=O)c1cc2nc(NC3CCC3)nc(Nc3cccc4[nH]ncc34)c2[nH]1", "UNITS OF MEASURE": "%", "inhibition": -1.17}
{"COMPOUND": "CC(C)c1cn2c3c(cc(C(=O)N[C@@H](Cc4ccccc4)[C@H](O)CNC4CCCCC4)cc13)N(C)S(=O)(=O)CC2", "UNITS OF MEASURE": "%", "inhibition": -2.44}

// moving on: another record for inhibition
The compound listed as CCC(C)NC(=O)Nc1ccc(-c2cccc(-c3nc4cc(C(F)(F)F)ccc4[nH]3)c2)cc1 (centres undefined) shows inhibition equal to 4.56

Data origin, for the record: ChEMBL document CHEMBL3433997
